EXPERIMENT DESCRIPTION: logP determination by HPLC on reversed-phase columns (EEC directive 79/831 Annex V.A8)
COND: pH 2.3
EXPERIMENTAL READOUT: logP (pH 2.3)
Give bare numbers.

>  <SMILES NOTATION>
COC(=O)c1cc(Nc2ncc(Cl)c(NC3CC3)n2)cs1

>  <logP (pH 2.3)>
1.68

$$$$
>  <SMILES NOTATION>
O=C(c1cc(Nc2ncc(Cl)c(NC3CC3)n2)cs1)N1CCCC1

>  <logP (pH 2.3)>
1.40

$$$$
>  <SMILES NOTATION>
O=C(O)c1cc(Nc2ncc(Cl)c(NC3CC3)n2)cs1

>  <logP (pH 2.3)>
1.30

$$$$

--- query ---
Tell me logP (pH 2.3) reported for Cc1ccc(Nc2ncc(Cl)c(NC3CC3)n2)s1 2.09
